systemName: T1, human apical domain of CD71 (human, UniProt P02786 189-383, limits assumed)
T1 construct: domain: apical domain
T1 sequence (P02786 189-383 limits assumed): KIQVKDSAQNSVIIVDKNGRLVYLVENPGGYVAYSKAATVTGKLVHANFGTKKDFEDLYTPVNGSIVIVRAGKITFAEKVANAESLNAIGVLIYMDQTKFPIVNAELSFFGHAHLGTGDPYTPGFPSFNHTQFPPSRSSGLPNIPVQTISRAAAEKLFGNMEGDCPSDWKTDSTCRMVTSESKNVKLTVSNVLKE
experimentalProtocol: primary ELISA; signal over HSA control
reportedEndpoint: Apical domain:HSA (ratio)

Worked cases, answers included:
- CD71-binding FN3 domain SEQ ID NO 421 (designed binder, The cell prints '42') MLPAPKNLVVSRVTEDSARLSWTAPDAAFDSFFIGYLEPQPPGEAIDLWVPGSERSYDLTGLKPGTEYNVTIQGVKGGFPSMPLEAVFTT: 398
- CD71-binding FN3 domain SEQ ID NO 396 (designed binder) MLPAPKNLVVSRVTEDSARLSWTAPDAAFDSFFIGYLEPQPPGEAIYLTVPGSERSYDLTGLKPGTEYNVTIQGVKGGFPSMPLSAIFTT: 183
- CD71-binding FN3 domain SEQ ID NO 375 (designed binder) MLPAPKNLVVSRVTEDSARLSWTAPDAAFDSFFIGYLEPQPPGEAIDLTVPGSERSYDLTGLKPGTEYNVTIQGVKGGFPSMPLSAIFTT: 139
- CD71-binding FN3 domain SEQ ID NO 441 (designed binder) MLPAPKNLVVSRVTEDSARLSWTAPDAAFDSFFIGYLEPQPPGEAILLWVPGSERSYDLTGLKPGTEYNVTIQGVKGGFPSDPLIANFTT: 31
- CD71-binding FN3 domain SEQ ID NO 428 (designed binder) MLPAPKNLVVSRVTEDSARLSWTAPDAAFDSFFIGYLEPQPPGEAISLYVPGSERSYDLTGLKPGTEYNVTIQGVKGGFPSNPLIAQFTT: 186

P: CD71-binding FN3 domain SEQ ID NO 351 (designed binder) MLPAPKNLVVSRVTEDSARLSWTAPDAAFDSFFIGYLEPQPPGEAITLAVPGSERSYDLTGLKPGTEYNVTIQGVKGGFPSNPLLAAFTT
Q: CD71-binding FN3 domain SEQ ID NO 365 (designed binder) MLPAPKNLVVSRVTEDSARLSWTAPDAAFDSFFIGYLEPQPPGEAIVLWVPGSERSYDLTGLKPGTEYNVTIQGVKGGFPSHPLVAKFTT
R: CD71-binding FN3 domain SEQ ID NO 412 (designed binder) MLPAPKNLVVSRVTEDSARLSWTAPDAAFDSFFIGYLEPQPPGEAIGLLVPGSERSYDLTGLKPGTEYNVTIQGVKGGFPSHPLLAVFTT
Your job: order these 3 records by Apical domain:HSA, ascending. A complete answer lists every label in the requested sequence.
Q, R, P
(Q: 65 ratio, R: 153 ratio, P: 345 ratio)
